test: Pharmacokinetics in Rhesus monkeys; type: in vivo; conditions: rhesus monkey, in vivo, iv, 2 mg/kg, Cmax, monkey 34887, IV 2 mg/kg
Endpoint: Cmax
State the result as a value with its unit after it.

Value lookup for Cmax; key = Cc1ccc2c(c1)c1c(n2CCc2ccccc2)CCN(C)C1
304 ng/mL

====

experiment: Pharmacokinetics in Rhesus monkeys; format: in vivo; conditions: rhesus monkey, in vivo, po, 10 mg/kg, Cmax, monkey 35189, PO 10 mg/kg
Endpoint: Cmax
State the result as a value with its unit after it.

Value lookup for Cmax; key = Cc1ccc2c(c1)c1c(n2CCc2ccccc2)CCN(C)C1 [AVN-101]
79 ng/mL

====

assay: Pharmacokinetics in Rhesus monkeys; format: in vivo; conditions: rhesus monkey, in vivo, iv, 2 mg/kg, Kel, Mean, IV 2 mg/kg
Endpoint: k el (s⁻¹)
Please give a number only; it is taken to be in s⁻¹.

Value lookup for k el; key = Cc1ccc2c(c1)c1c(n2CCc2ccccc2)CCN(C)C1
0.000208

====

assay: Pharmacokinetics in mice, IP; format: in vivo; settings: mouse, blood, 0.2 mg/kg
Endpoint: Tmax (min)
Please give a number only; it is taken to be in min.

Value lookup for Tmax; key = Cc1ccc2c(c1)c1c(n2CCc2ccccc2)CCN(C)C1 [AVN-101]
15

====

biological target: histamine H2 receptor (Homo sapiens, UniProt P25021); test: Radioligand binding competition, histamine H2
Sequence (P25021 whole entry): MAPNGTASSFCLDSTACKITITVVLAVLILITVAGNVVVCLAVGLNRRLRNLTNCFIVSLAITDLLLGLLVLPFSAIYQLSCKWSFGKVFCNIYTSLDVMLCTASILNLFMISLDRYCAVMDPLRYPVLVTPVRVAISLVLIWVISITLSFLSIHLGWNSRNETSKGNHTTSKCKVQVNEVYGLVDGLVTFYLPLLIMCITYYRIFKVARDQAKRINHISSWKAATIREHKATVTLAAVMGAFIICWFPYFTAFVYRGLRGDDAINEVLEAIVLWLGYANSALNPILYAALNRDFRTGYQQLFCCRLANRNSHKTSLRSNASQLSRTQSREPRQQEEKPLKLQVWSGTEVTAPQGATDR
Endpoint: Ki (nM)
Please give a number only; it is taken to be in nM.

Value lookup for Ki; key = Cc1ccc2c(c1)c1c(n2CCc2ccccc2)CCN(C)C1
89

====

assay: Metabolism in human microsomes; type: in vitro ADME; conditions: human, liver microsomes
Endpoint: half-life at 1 µM
State the result as a value with its unit after it.

Value lookup for half-life at 1 µM; key = Cc1ccc2c(c1)c1c(n2CCc2ccccc2)CCN(C)C1
2.07 min

====

experiment: Pharmacokinetics in mice, IP; assay type: in vivo; conditions: mouse, blood, 0.2 mg/kg, AUC0 - >∞, IP 0.2 mg/kg
Endpoint: AUC (ng·h/mL)
Please give a number only; it is taken to be in ng·h/mL.

Value lookup for AUC; key = Cc1ccc2c(c1)c1c(n2CCc2ccccc2)CCN(C)C1 [AVN-101]
6.08

====

assay: Metabolism in human liver S9 fraction; assay type: in vitro ADME; settings: human, liver S9 fraction, T1/2, +NADPH, 2μM
Endpoint: half-life at 2 µM (h)
Please give a number only; it is taken to be in h.

Value lookup for half-life at 2 µM; key = Cc1ccc2c(c1)c1c(n2CCc2ccccc2)CCN(C)C1
1.45

====

target: hKv4.3-hKCh1P2.2 (Ito) (Homo sapiens); test: Cardiac channel inhibition, Ito
Sequence (Q9UK17 whole entry): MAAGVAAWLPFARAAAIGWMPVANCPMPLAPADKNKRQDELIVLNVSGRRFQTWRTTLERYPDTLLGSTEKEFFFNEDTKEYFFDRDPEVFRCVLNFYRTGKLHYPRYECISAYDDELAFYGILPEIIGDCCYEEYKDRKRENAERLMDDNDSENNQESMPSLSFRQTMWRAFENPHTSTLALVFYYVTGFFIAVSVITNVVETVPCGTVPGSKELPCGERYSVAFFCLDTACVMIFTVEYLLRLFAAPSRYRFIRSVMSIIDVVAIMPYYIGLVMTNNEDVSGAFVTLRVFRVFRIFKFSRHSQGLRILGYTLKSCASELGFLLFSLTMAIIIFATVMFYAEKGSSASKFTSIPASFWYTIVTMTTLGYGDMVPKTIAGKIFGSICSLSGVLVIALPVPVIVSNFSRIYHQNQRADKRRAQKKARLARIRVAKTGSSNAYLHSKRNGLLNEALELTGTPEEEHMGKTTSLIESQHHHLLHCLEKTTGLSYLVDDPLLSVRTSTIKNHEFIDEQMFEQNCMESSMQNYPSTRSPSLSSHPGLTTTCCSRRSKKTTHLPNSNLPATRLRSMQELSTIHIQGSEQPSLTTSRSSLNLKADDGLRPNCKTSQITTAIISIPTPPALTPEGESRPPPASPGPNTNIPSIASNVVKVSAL
Endpoint: pIC50
Note: pIC50 values are expressed as the negative base-10 logarithm of concentration in M.

Value lookup for pIC50; key = Cc1ccc2c(c1)c1c(n2CCc2ccccc2)CCN(C)C1 [AVN-101]
4.83

====

test: Metabolism in rat liver S9 fraction; type: in vitro ADME; conditions: rat, liver S9 fraction, T1/2, +NADPH, 2μM
Endpoint: half-life at 2 µM (min)
Please give a number only; it is taken to be in min.

Value lookup for half-life at 2 µM; key = Cc1ccc2c(c1)c1c(n2CCc2ccccc2)CCN(C)C1 [AVN-101]
2.36
